- Test system: COLO 205
- method-summary: NCI tumour cell line growth inhibition, 48 h
The source made the active and inactive calls. Cut-off read from the data, not from the text of the source: active = GI50 up to about 1.1 µM and inactive = higher.
Hello, when you answer, please use one of the following outcomes: 1 for active, 0 for inactive

Recorded test call requested for "CCC(=O)OC[n+]1ccc2c(C)c3[nH]c4ccccc4c3c(C)c2c1"
1

Recorded test call requested for "Cc1ccnc(Nc2[nH]c(C(=O)c3ccc(Cl)cc3)c(N)c2C(=S)Nc2ccccc2)c1"
0

Just curious, what result did "C/N=c1\ss/c(=N\C(=S)N(C)C)n1C1CCCCC1" get here?
0

Please indicate how the test categorized "O=CNc1ccc(S(=O)(=O)c2ccc(NC=O)cc2)cc1" .
0

Lab log entry: "CN(C)/C=N/c1c2c(nc3ccccc13)CCCC2" — outcome as called in the assay?
0

Assay outcome for "[O-]c1c[n+](CCCC[n+]2cc([O-])on2)no1" : what was it?
0

Per the records of this test, what outcome belongs to c1ccc(C2=NOC3(c4ccccc4)SC4CCCCC4CN23)cc1 (stereo not drawn) ?
0

// outcome(item) with item = "O=C1Nc2ccccc2/C1=N/N=c1\cccc[nH]1"
0

Sourced from ChEMBL document CHEMBL1201862
